The values you see were collected from patent US6545002B1.

For each of the compounds below, state its pKi.
# tested_target: rat A2A receptors (rA2A) (Rattus norvegicus, UniProt P30543)
# Construct: to A2A receptors from rat striatal membranes was performed as described; from tissue; host or cells: rat striatal membranes
# Sequence (P30543 whole entry): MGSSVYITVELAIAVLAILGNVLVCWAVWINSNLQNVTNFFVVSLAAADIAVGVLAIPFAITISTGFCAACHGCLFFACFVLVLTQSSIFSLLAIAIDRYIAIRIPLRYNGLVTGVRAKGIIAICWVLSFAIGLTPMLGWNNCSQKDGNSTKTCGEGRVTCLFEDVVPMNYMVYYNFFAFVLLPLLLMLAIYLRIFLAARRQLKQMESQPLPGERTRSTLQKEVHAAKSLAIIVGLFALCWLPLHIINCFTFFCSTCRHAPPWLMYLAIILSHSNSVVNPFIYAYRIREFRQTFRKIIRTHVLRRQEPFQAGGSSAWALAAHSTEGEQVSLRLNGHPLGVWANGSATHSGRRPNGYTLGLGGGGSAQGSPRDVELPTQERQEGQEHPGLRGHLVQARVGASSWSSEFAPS
# procedure_summary: Displacement of [3H]CGS 21680 binding in rat striatal membranes
# condition_info: Table 2; read-out: rA2A Ki or IC50
Numbers only, as −log10 of the molar value.

Some solved entries appear below for comparison.
>  <compound>
CCCn1c(=O)c2[nH]c(-c3ccc(OCC(=O)Nc4ccc(C(N)=O)cc4)cc3)nc2n(CCC)c1=O [Compound 22]

>  <pKi>
6.17

$$$$
>  <compound>
CCCn1c(=O)c2[nH]c(-c3ccc(OCC(=O)Nc4ccc(O)cc4)cc3)nc2n(CCC)c1=O [Compound 26]

>  <pKi>
7.20

$$$$
>  <compound>
CCCn1c(=O)c2[nH]c(-c3ccc(OCC(=O)Nc4ccc(C#N)cc4)cc3)nc2n(CCC)c1=O [Compound 27]

>  <pKi>
6.21

$$$$
>  <compound>
CCCn1c(=O)c2[nH]c(-c3ccc(OCC(=O)Nc4ccc(Cl)cc4)cc3)nc2n(CCC)c1=O [Compound 31]

>  <pKi>
6.00

$$$$
>  <compound>
CCCn1c(=O)c2[nH]c(-c3ccc(OCC(=O)Nc4ccc(C)cc4)cc3)nc2n(CCC)c1=O [Compound 25]

>  <pKi>
6.90

$$$$
>  <compound>
CCCn1c(=O)c2[nH]c(-c3ccc(OCC(=O)N(CC(=O)OCC)CC(=O)OCC)cc3)nc2n(CCC)c1=O [Compound 17]

>  <pKi>
6.00

$$$$

List pKi for every entry below, keeping the order given.
1. CCCn1c(=O)c2[nH]c(-c3ccc(OCC(=O)Nc4ccc([N+](=O)[O-])cc4)cc3)nc2n(CCC)c1=O [Compound 28]
2. CCCn1c(=O)c2[nH]c(-c3ccc(OCC(=O)Nc4ccc(C(C)=O)cc4)cc3)nc2n(CCC)c1=O [Compound 20]

### Response
1. 5.93
2. 6.26

====

# tested_target: human A2B receptors (hA2B) (Homo sapiens)
# Construct: expressed in transfected cells; host or cells: HEK-293 (HEK-A2B, G418-selected)
# Sequence (P29275 whole entry): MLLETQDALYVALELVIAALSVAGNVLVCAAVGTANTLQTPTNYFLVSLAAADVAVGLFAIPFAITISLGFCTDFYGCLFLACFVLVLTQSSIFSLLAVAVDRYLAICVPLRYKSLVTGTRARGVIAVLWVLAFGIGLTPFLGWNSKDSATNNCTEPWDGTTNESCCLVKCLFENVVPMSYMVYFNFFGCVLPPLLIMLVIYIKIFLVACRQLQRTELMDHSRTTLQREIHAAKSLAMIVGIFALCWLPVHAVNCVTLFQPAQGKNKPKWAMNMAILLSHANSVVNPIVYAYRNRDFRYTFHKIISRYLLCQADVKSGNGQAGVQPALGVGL
# procedure_summary: Radioligand binding ([125I]ABOPX / [3H]ZM241385) at human A2B receptors expressed in HEK-293 cells
# condition_info: Table 4; Ki ratio
experimental_readout: rA1/hA2B

Some solved entries appear below for comparison.
>  <structure>
CCCn1c(=O)c2[nH]c(-c3ccc(OCC(=O)NN4C(=O)c5ccccc5C4=O)cc3)nc2n(CCC)c1=O

>  <experimental_readout>
rA1/hA2B

>  <result>
0.41

$$$$
>  <structure>
CCCn1c(=O)c2[nH]c(-c3ccc(OCC(=O)NN4C(=O)[C@H]5CC=CC[C@H]5C4=O)cc3)nc2n(CCC)c1=O

>  <experimental_readout>
rA1/hA2B

>  <result>
3.6

$$$$

List rA1/hA2B for every entry below, keeping the order given.
1. CCCn1c(=O)c2[nH]c(-c3ccc(OCC(=O)NNC(=O)C4=C(C(=O)O)CCC4)cc3)nc2n(CCC)c1=O
2. CCCn1c(=O)c2[nH]c(-c3ccc(OCC(=O)NN4C(=O)C=C(c5ccccc5)C4=O)cc3)nc2n(CCC)c1=O

### Response
[1.0, 3.4]
